Sourced from paper PMC6556873

Field: viability at 48 h, 10 µM. Provide a value for each of the compounds that follow.
EXPERIMENTAL DETAILS: in vitro
Set-up: species or system CCD841, HEK293
CONDITIONS USED: human, hb2 cells, read-out: HB-2 Cells Viability (%)
Output spec: scalar in %, unitless text.

State, in one line, measured viability at 48 h, 10 µM of O=C(CCl)N1CCN(C(=O)C2COc3ccccc3O2)CC1 (stereo not shown)
19.8

State, in one line, measured viability at 48 h, 10 µM of "Cc1ccc(S(C)(=O)=O)cc1NC(=O)CCl"
58.6

State, in one line, measured viability at 48 h, 10 µM of "C=CC(=O)N1CCC(n2nnc3c2CCCC3)CC1"
106

State, in one line, measured viability at 48 h, 10 µM of "O=C(CCl)NC(=O)c1ccc(Cl)cc1"
98.9

State, in one line, measured viability at 48 h, 10 µM of "O=C(CCl)N1CCC(C(=O)N2CCCCC2)CC1"
84.6

State, in one line, measured viability at 48 h, 10 µM of "CC(C)N(C(=O)CCl)C(C)C"
102

State, in one line, measured viability at 48 h, 10 µM of "COc1cccc(NC(=O)CCl)c1"
34.1

State, in one line, measured viability at 48 h, 10 µM of "C=CC(=O)Nc1ccc(C(=O)O)cc1"
111

State, in one line, measured viability at 48 h, 10 µM of "O=C(CCl)N1CCc2[nH]c3ccccc3c2C1"
7.3

State, in one line, measured viability at 48 h, 10 µM of C=CC(=O)NC1CCc2nc(-c3cc(F)ccc3F)cn2C1 (stereo not shown)
97.4

State, in one line, measured viability at 48 h, 10 µM of "C=CC(=O)N1CC(OC(=O)Nc2cccc(F)c2)C1"
82.3

State, in one line, measured viability at 48 h, 10 µM of "O=C(CCl)Nc1ccc([N+](=O)[O-])cc1Cl"
43.5

State, in one line, measured viability at 48 h, 10 µM of "CCN(C(=O)CCl)c1ccccc1C"
93.4

====

EXPERIMENTAL DETAILS: in vitro
Set-up: species or system HB2, CCD841
CONDITIONS USED: human, hek293 cells
Note to self: class = bucket of viability at 48 h, 10 µM, per bottom range (below 40%), center range (40% to below 90%), top range (90% or more)

Which class holds CN(Cc1cccc(Cl)c1)C(=O)CCl [PCM-0102976] ?
bottom range

Which class holds O=C(CCl)Nc1ccc(F)cc1 [PCM-0103002] ?
bottom range

Which class holds O=C(CCl)Nc1ccc2[nH]c(=O)[nH]c2c1 [PCM-0102866] ?
bottom range

Which class holds O=C(CCl)NC(=O)c1cccc([N+](=O)[O-])c1 [PCM-0102460] ?
top range

Which class holds Cc1cccc(NC(=O)CCl)c1 [PCM-0102116] ?
bottom range

Which class holds O=C(CCl)Nc1ccc(Cl)cc1Cl [PCM-0102914] ?
bottom range

Which class holds C=CC(=O)N(C)Cc1c(C)nc2sc(C)cn12 [PCM-0102679] ?
center range

Which class holds C=CC(=O)NCc1snnc1C [PCM-0103079] ?
top range

Which class holds C=CC(=O)N1CCC(NC(=O)OC(C)(C)C)CC1 [PCM-0102617] ?
top range

Which class holds C=CC(=O)Nc1ccccc1[N+](=O)[O-] [PCM-0102742] ?
center range

Which class holds O=C(CCl)N1CCC2CCCCC2C1 (stereo not drawn) [PCM-0102474] ?
bottom range

Which class holds CC(C)C(=O)NNC(=O)CCl [PCM-0103014] ?
top range

Which class holds O=C(CCl)Nc1ccc(O)cc1 [PCM-0102163] ?
bottom range
